Where do these numbers come from? They come from patent US20100298141A1.

Some compounds, each annotated with its measured Oat, Wild plant response rating.
Test system: wild oat
Assay Text: Test C pre-/postemergence test
Format: in vivo, Avena fatua
Measurement Parameters: 31 g ai/ha, Preemergence; scale 0 to 100

Sample answers from the record:
{"Compound": "Cn1nc(C(F)(F)F)c(CS(=O)(=O)c2cccc[n+]2[O-])c1Cl", "Oat, Wild plant response rating": 0}
{"Compound": "Cn1nc(C(F)(F)F)c(C[S+]([O-])c2ccc(Br)c[n+]2[O-])c1OC(F)F (racemic)", "Oat, Wild plant response rating": 0}
{"Compound": "Cc1cc[n+]([O-])c(S(=O)(=O)Cc2c(C(F)(F)F)nn(C)c2OC(F)F)c1", "Oat, Wild plant response rating": 50}

# evaluate next
Query: Given the entry `Cn1nc(C(F)(F)F)c(CS(=O)(=O)c2cccc[n+]2[O-])c1OC(F)F` , report its measured Oat, Wild plant response rating.
Result: 10
